Source of measurements: patent US10208019B2

Biological target: human GLP-1R (Homo sapiens (Human), UniProt P43220, L260F)
Sequence (P43220 24-463 L260F): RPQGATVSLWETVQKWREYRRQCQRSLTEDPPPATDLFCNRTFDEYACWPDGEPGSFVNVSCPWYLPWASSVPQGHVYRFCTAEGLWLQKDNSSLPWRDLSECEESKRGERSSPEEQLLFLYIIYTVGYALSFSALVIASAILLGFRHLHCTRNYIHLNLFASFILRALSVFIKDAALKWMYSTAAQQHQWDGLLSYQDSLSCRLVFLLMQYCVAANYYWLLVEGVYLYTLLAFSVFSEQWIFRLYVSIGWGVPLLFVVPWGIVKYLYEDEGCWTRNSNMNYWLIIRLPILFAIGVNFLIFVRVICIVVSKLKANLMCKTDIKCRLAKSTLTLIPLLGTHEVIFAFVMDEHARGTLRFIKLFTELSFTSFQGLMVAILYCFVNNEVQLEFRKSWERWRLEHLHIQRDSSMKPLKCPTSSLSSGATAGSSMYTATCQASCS
Assay: CHO GLP-1R Clone C6—Assay 2: HTRF cAMP cell-based functional agonist assay (low GLP-1R density)
Conditions: CHO GLP-1R Clone C6; relative to saturating concentration of full agonist GLP-1 (1 μM); arithmetic mean; read-out: Assay 2 Emax (%)
measure.name: Emax (%)

>>> observed_result("Cn1cncc1Cn1c(CN2CCC(c3cccc(OCc4ccc(C#N)cc4F)n3)CC2)nc2ccc(C(=O)O)cc21")
82
>>> observed_result("O=C(O)c1ccc2nc(CN3CCC(c4cccc(OCc5ccc(Cl)cc5F)n4)CC3)n(Cc3ccon3)c2c1 [Example 11A-69]")
84
>>> observed_result("CCOC(C)Cn1c(CN2CCC(c3cccc(OCc4ccc(Cl)cc4F)n3)CC2)nc2ccc(C(=O)O)cc21 (stereo not shown) [Example 11A-18]")
92
>>> observed_result("CCn1cncc1Cn1c(CN2CCC(c3cccc(OCc4ccc(F)cc4F)n3)CC2)nc2ccc(C(=O)O)cc21 [Example 10A-32]")
94
>>> observed_result("N#Cc1ccc(COc2cccc(C3CCN(Cc4nc5ccc(C(=O)O)cc5n4C[C@@H]4CCCO4)CC3)n2)c(F)c1")
83
>>> observed_result("N#Cc1ccc(COc2cccc(C3CCN(Cc4nc5ccc(C(=O)O)nc5n4Cc4ncco4)CC3)n2)c(F)c1")
100
>>> observed_result("Cc1ccn(CCn2c(CN3CCC(c4cccc(OCc5ccc(Cl)cc5F)n4)CC3)nc3ccc(C(=O)O)cc32)n1 [Example 11A-31]")
81
